- test description: gradient 5% acetonitrile 3 min, to 50% in 2 min, to 85% in 15 min, held 3 min, 100 µL/min
- experimental parameters: column: Zorbax Extend-C18 2.1 x 50 mm; eluents: water / acetonitrile, 0.1% formic acid
measured endpoint: RP-LC retention time (s)
// return numeric value only (unit: s, not printed)

molecule: CC(=O)N1c2ccc(S(=O)(=O)N3CCOCC3)cc2CC1C(=O)N1CCCCC1 (stereo not given)
unit of measurement: s
RP-LC retention time: 697
//
molecule: Cc1ccc(CN2CC(=O)N(CCc3ccccn3)C(c3cccs3)C2=O)cc1 (stereo not given)
unit of measurement: s
RP-LC retention time: 559
//
molecule: CCCN(CC1CCOC1)C(=O)Nc1c(F)cccc1F (stereo not given)
unit of measurement: s
RP-LC retention time: 731
//
molecule: COc1ccc(C)cc1NC(=O)C1CCN(c2cc(N3CCSCC3)ncn2)CC1
unit of measurement: s
RP-LC retention time: 717

Next:
Sample "O=C(Cn1nc(N2CCOCC2)c2ccccc2c1=O)Nc1ccc(Cl)cc1F" ; RP-LC retention time observed: 866
